# Test target: Replicase polyprotein 1ab (Severe acute respiratory syndrome coronavirus 2, UniProt P0DTD1)
Parameter measured: pKd
Notebook: values listed as pKd are -log10 of the concentration (mol/L).

Complete the entry with pKd for "O=C1N[C@@H](Cc2ccccc2)C(=O)N1c1cncc(F)c1"
4.64

###

# Test target: Transcriptional enhancer factor TEF-1 (Homo sapiens, UniProt P28347)
# Sequence (P28347 whole entry): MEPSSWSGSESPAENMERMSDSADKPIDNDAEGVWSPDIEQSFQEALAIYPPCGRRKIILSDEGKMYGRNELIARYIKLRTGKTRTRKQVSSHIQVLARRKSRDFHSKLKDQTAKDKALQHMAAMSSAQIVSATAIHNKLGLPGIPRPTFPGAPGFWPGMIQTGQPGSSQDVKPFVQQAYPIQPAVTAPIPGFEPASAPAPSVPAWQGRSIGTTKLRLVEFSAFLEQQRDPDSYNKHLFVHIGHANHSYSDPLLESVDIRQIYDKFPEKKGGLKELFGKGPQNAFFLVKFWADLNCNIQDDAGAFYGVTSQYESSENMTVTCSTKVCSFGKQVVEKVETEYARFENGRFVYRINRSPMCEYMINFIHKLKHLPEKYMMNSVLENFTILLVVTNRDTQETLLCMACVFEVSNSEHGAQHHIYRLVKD
Parameter measured: Kd (nM)
Just the number in nM, nothing appended.

Return reported Kd for target or system Transcriptional enhancer factor TEF-1 (Homo sapiens, UniProt P28347), item "C=C(F)C(=O)N1C[C@@H](n2cc(-c3cccnc3)nn2)[C@H](OCc2ccc(C(F)(F)F)cc2)C1" .
170
